target: Human immunodeficiency virus type 1 reverse transcriptase (Human immunodeficiency virus 1, UniProt Q72547); assay: In vitro inhibitory concentration against HIV-1 reverse transcriptase using rC-dG template primer
Reported log10 IC50 by item:
measurement_kind: log10 IC50 (log10 of the value in µM)

{"columns": ["item_smiles", "measurement_kind", "quantitative_readout"],
 "data": [
  ["CCc1cc(NCc2ccccc2C(F)(F)F)c(=O)[nH]c1C", "log10 IC50", 1.10],
  ["CCc1cc(NCc2c(C)cccc2OC)c(=O)[nH]c1C", "log10 IC50", 0.11],
  ["CCc1cc(CNc2cc(CC)c(C)nc2O)c(O)nc1C", "log10 IC50", -1.04],
  ["CCc1cc(NCc2nc3c(cc2OC)CCC3)c(O)nc1C", "log10 IC50", -1.40],
  ["CCc1ccc(OC)c(CNc2cc(CC)c(C)nc2O)c1", "log10 IC50", -1.49],
  ["CCc1cc(NCc2cccc(C)c2OC)c(O)nc1C", "log10 IC50", 0.58],
  ["CCc1cc(CCc2cc(CC)c(C)nc2OC)c(O)nc1C", "log10 IC50", -1.19],
  ["CCc1cc(NCc2ccccc2SC)c(=O)[nH]c1C", "log10 IC50", 0.18],
  ["CCc1cc(CCc2nc3ccccc3o2)c(O)nc1C", "log10 IC50", -1.70],
  ["CCc1cc(NCc2ccccc2COC)c(O)nc1C", "log10 IC50", 1.55],
  ["CCc1cc(NCc2cc(C)c(C)cc2OC)c(O)nc1C", "log10 IC50", -2.10],
  ["CCOc1ccccc1CNc1cc(CC)c(C)nc1O", "log10 IC50", -0.46],
  ["CCc1cc(NCc2ccc(OC)cc2)c(O)nc1C", "log10 IC50", 0.88]
]}

* * *

tested on: MT4; assay: Cell culture inhibitory concentration against spread of HIV-I infection in MT-4 cells was determined; type: functional; settings: Homo sapiens, read-out: CIC95
Structures can show the parent of a compound that is named as a salt.

{"columns": ["molecule", "IC95 (nM)"],
 "data": [
  ["Cc1ccnc2c1NC(=O)c1cccnc1N2C1CC1", 100],
  ["CCc1cc(NCc2cc(C)c(C)nc2OC)c(O)nc1C", 50],
  ["CCc1cc(NCc2nc(C)c(C)cc2OC)c(O)nc1C", 100],
  ["CCc1cc(NCc2cc(CC)c(C)nc2OC)c(O)nc1C", 13],
  ["CCc1cc(NCc2cc(C)c(C)cc2OC)c(O)nc1C", 13],
  ["CCNc1cccnc1N1CCN(C(=O)c2cc3cc(OC)ccc3[nH]2)CC1 [ATEVIRDINE MESYLATE]", 1500],
  ["CC(C)=CCN1Cc2cccc3[nH]c(=S)n(c23)C[C@@H]1C", 200],
  ["CCOCn1c(Sc2ccccc2)c(CC)c(=O)[nH]c1=O", 100],
  ["CCc1cc(NCc2ccccc2OC)c(O)nc1C", 400],
  ["CCc1cc(NCc2cccnc2OC)c(O)nc1C", 800],
  ["CCc1cc(NCc2nc3c(Cl)ccc(Cl)c3o2)c(O)nc1C", 50]
]}

* * *

Reported IC50 by item:
target: Human immunodeficiency virus type 1 reverse transcriptase (Human immunodeficiency virus 1); assay: In vitro inhibitory concentration against HIV-1 reverse transcriptase using rC-dG template primer

{"columns": ["item_smiles", "IC50"],
 "data": [
  ["CCc1cc(NCc2ccccc2C#N)c(=O)[nH]c1C", "790 nM"],
  ["CCc1cc(NCc2ccccc2[N+](=O)[O-])c(=O)[nH]c1C", "530 nM"],
  ["CCc1cc(NCc2ccncc2OC)c(=O)[nH]c1C", "110000 nM"],
  ["CCc1cc(NCc2ccccc2C)c(O)nc1C", "2200 nM"],
  ["CCc1cc(NCc2ccc(C)cc2OC)c(O)nc1C", "32 nM"],
  ["CCc1cc(NCc2cccnc2OC)c(O)nc1C", "680 nM"],
  ["CCc1cc(CNc2cc(CC)c(C)[nH]c2=O)c(OC)cc1C", "33 nM"]
]}

* * *

Data export: IC50 values recorded with Human immunodeficiency virus type 1 reverse transcriptase (Human immunodeficiency virus 1).

{"columns": ["item_smiles", "IC50 [nM]"],
 "data": [
  ["CCc1cc(NCc2cc(C)ccc2OC)c(O)nc1C", 23],
  ["CCc1cc(NCc2ccccc2F)c(O)nc1C", 1400],
  ["CCc1cc(NCc2ncccc2OC)c(=O)[nH]c1C", 1550],
  ["CCc1cc(NCc2nc(CC)c(C)cc2OC)c(O)nc1C", 70],
  ["CCc1cc(NCc2nc(C)c(C)cc2OC)c(O)nc1C", 70],
  ["CCc1ccccc1CNc1cc(CC)c(C)[nH]c1=O", 6900],
  ["CCOCn1c(Sc2ccccc2)c(CC)c(=O)[nH]c1=O", 32],
  ["CCc1cc(NCc2ccccc2O)c(=O)[nH]c1C", 4600],
  ["CCc1cc(NCc2ccccc2OC)c(O)nc1C", 265],
  ["CCc1cc(CCc2cc(CC)c(C)nc2O)c(O)nc1C", 400]
]}

* * *

molecular target: Human immunodeficiency virus type 1 reverse transcriptase (Human immunodeficiency virus 1, UniProt Q72547)

{"columns": ["item_smiles", "IC50 / nM"],
 "data": [
  ["CCc1cc(NCc2cccc(OC)c2)c(=O)[nH]c1C", 1250],
  ["CCc1cc(NCc2cc(CC)c(C)nc2OC)c(O)nc1C", 19],
  ["CCc1cc(NCc2nc3c(cc2OC)CCCC3)c(O)nc1C", 47],
  ["CCc1cc(NCc2cnccc2OC)c(=O)[nH]c1C", 10000],
  ["CCc1cc(NCc2cc3c(cc2OC)CCC3)c(=O)[nH]c1C", 40],
  ["CCc1cc(NCc2cc3c(nc2OC)CCCC3)c(O)nc1C", 35],
  ["CCc1cc(NCc2cc3ccccc3nc2OC)c(O)nc1C", 34],
  ["CCc1ccc(CNc2cc(CC)c(C)nc2O)c(OC)c1", 510],
  ["CCc1cc(NCc2ccccc2Cl)c(O)nc1C", 1450],
  ["CCc1cc(NCc2cc(C)c(C)nc2OC)c(O)nc1C", 9],
  ["CCc1cc(NCc2ccccc2N)c(O)nc1C", 28000],
  ["CC(C)=CCN1Cc2cccc3[nH]c(=S)n(c23)C[C@@H]1C", 70]
]}
